System: cancer cell lines
PROTOCOL DETAILS: Cancer cell proliferation activity (CellTiterGlo, 72 h)
Format: cell-based
COND: Homo sapiens, LoVo, 72 h, LOVO (colon), 72 h; read-out: IC50 cell proliferation
Please go through the items and note down their pIC50.
Numbers only, as −log10 of the molar value.

// below: answered compounds
COMPOUND	pIC50
Nc1nc(F)nc2c1ncn2[C@H]1C[C@H](O)[C@@H](CO)O1 [compound 171]	6.36
Nc1nc(F)nc2c1ncn2[C@H]1C[C@H](O)[C@](CO)(C2CC2)O1 [Cpd. No. 5]	5.56
Nc1nc(F)nc2c1ncn2[C@@H]1O[C@H](CO)[C@@H](O)[C@H]1O [compound 184]	7.70

Below are 2 compounds. Give each one its pIC50.
1. Nc1nc(F)nc2c1ncn2[C@H]1C[C@H](O)[C@](CO)(CC2CC2)O1 [Cpd. No. 130]
2. C#C[C@]1(CO)O[C@@H](n2cc(Cl)c(N)nc2=O)C[C@@H]1O [Cpd. No. 109]

Result block:
1. 6.31
2. 5.60

Provide pIC50 for all items below, preserving their order.
1. CCC[C@]1(CO)O[C@@H](n2cnc3c(N)nc(F)nc32)[C@H](O)[C@@H]1O [compound 195]
2. Nc1nc(F)nc2c1ncn2[C@@H]1O[C@H](CO)[C@@H](O)[C@@H]1O [compound 170]
3. Nc1ccn([C@H]2C[C@H](O)[C@](CO)(CF)O2)c(=O)n1 [Cpd. No. 198]
4. C[C@]1(CO)O[C@@H](n2cnc3c(N)nc(F)nc32)[C@H](O)[C@@H]1O [Cpd. No. 178]
5. Nc1nc(=O)n([C@H]2C[C@H](O)[C@@H](CO)O2)cc1F [compound 169]
6. O=c1[nH]c(=O)n([C@H]2C[C@H](O)[C@@H](CO)O2)cc1F [compound 185]
7. Nc1nc(=O)n([C@H]2C[C@H](O)[C@](CO)(CF)O2)cc1F [Cpd. No. 197]

Result block:
[7.52, 5.01, 6.54, 7.70, 8.70, 8.15, 8.22]

For every item below, please supply its pIC50.
1. C[C@]1(CO)O[C@@H](n2ccc(N)nc2=O)[C@@H](O)[C@@H]1O [Cpd. No. 193]
2. C[C@]1(CO)O[C@@H](n2ccc(N)nc2=O)C(F)(F)[C@@H]1O [Cpd. No. 190]

Result block:
1. 5.63
2. 5.56
